Target: T1, recombinant RSV-F protein (RSV A2 strain fusion (F) protein with added His tag) (human respiratory syncytial virus, A2 …, UniProt P03420 26-524)
T1 construct: also called RSV-F recombinant protein
T1 sequence (P03420 26-109, chain 1 of 2): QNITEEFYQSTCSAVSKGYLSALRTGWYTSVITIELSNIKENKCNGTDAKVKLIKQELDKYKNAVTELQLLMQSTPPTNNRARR
T1 sequence (P03420 137-524, chain 2 of 2): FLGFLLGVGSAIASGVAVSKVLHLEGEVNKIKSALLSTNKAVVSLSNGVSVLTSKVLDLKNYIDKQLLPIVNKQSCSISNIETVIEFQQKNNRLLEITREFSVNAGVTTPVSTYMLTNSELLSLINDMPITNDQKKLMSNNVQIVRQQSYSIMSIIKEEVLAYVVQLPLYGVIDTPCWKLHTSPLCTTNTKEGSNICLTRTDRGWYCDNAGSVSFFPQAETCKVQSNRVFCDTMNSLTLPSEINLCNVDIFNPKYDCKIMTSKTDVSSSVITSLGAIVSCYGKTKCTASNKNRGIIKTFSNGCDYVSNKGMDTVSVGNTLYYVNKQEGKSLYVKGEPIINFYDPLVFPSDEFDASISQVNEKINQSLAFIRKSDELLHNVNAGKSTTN
Test: SPR (Biacore), antibody captured, RSV-F as analyte
experimental-endpoint: kon (M⁻¹ s⁻¹)
One number for each entry, in M⁻¹ s⁻¹.

Before answering, review these 5 worked examples.
INSERT INTO assay_data (binder, experimental_endpoint, endpoint_value) VALUES
  ('A2-M (antibody, V domains shown, also called humanized mutant antibody A2-M) VH: QVTLKESGPALVKPTQTLTLTCTFSGFSLSTSGMGVSWIRQPPGKALEWLAHIYWDDDKNFNPSLRSRLTITKDPSKNQVVLTMTNMDPVDTATYFCARKLYNDYDYILDYWGQGTTVTVSS VL: DIVMTQSPLSLPVTPGEPASISCRSSKSLLHSNGITYLMWFLQKPGQSPQLLIYQMSNLASGVPDRFSGSGSGTDFTLKISRVEAEDVGVYYCAQNLELWTFGQGTRLEIK', 'kon', '2.31e+06'),
  ('A2-I (antibody, V domains shown, also called humanized mutant antibody A2-I) VH: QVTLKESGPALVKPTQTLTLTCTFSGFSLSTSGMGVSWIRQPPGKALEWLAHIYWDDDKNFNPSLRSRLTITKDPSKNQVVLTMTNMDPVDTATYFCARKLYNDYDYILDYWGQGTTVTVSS VL: DIVMTQSPLSLPVTPGEPASISCRSSKSLLHSNGITYLIWFLQKPGQSPQLLIYQMSNLASGVPDRFSGSGSGTDFTLKISRVEAEDVGVYYCAQNLELWTFGQGTRLEIK', 'kon', '3.07e+06'),
  ('A2-N (antibody, V domains shown, also called humanized mutant antibody A2-N) VH: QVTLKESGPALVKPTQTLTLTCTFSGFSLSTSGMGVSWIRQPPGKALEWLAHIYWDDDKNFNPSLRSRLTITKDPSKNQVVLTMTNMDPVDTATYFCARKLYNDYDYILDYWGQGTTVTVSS VL: DIVMTQSPLSLPVTPGEPASISCRSSKSLLHSNGITYLNWFLQKPGQSPQLLIYQMSNLASGVPDRFSGSGSGTDFTLKISRVEAEDVGVYYCAQNLELWTFGQGTRLEIK', 'kon', '1.61e+06'),
  ('A2-A (antibody, human IgG1, kappa, V domains shown, also called humanized mutant antibody A2-A) VH: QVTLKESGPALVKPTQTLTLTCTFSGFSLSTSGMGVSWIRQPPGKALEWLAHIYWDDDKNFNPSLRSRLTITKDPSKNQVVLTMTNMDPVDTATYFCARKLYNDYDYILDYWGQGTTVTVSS VL: DIVMTQSPLSLPVTPGEPASISCRSSKSLLHSNGITYLAWFLQKPGQSPQLLIYQMSNLASGVPDRFSGSGSGTDFTLKISRVEAEDVGVYYCAQNLELWTFGQGTRLEIKR', 'kon', '2.3e+06'),
  ('A2-Q (antibody, V domains shown, also called humanized mutant antibody A2-Q) VH: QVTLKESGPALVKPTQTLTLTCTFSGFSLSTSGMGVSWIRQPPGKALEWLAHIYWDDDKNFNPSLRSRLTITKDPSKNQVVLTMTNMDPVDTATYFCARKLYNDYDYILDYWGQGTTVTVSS VL: DIVMTQSPLSLPVTPGEPASISCRSSKSLLHSNGITYLQWFLQKPGQSPQLLIYQMSNLASGVPDRFSGSGSGTDFTLKISRVEAEDVGVYYCAQNLELWTFGQGTRLEIK', 'kon', '2.38e+06');

In the following, a different binder is considered.
Query :: I'd like to know its kon. The binder in question is A2-G (antibody, human IgG1, kappa, V domains shown, also called humanized mutant antibody A2-G) VH: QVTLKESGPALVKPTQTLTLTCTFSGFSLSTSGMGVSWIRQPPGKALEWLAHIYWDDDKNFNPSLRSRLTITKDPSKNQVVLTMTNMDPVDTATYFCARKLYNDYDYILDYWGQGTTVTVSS VL: DIVMTQSPLSLPVTPGEPASISCRSSKSLLHSNGITYLGWFLQKPGQSPQLLIYQMSNLASGVPDRFSGSGSGTDFTLKISRVEAEDVGVYYCAQNLELWTFGQGTRLEIKR
Result :: 1.97e+06

Sourced from patent US20250026815A1
